What binding signal was measured for each of the following?
study.system: TDP-43 (Homo sapiens, UniProt Q13148 1-414)
Sequence (Q13148 whole entry): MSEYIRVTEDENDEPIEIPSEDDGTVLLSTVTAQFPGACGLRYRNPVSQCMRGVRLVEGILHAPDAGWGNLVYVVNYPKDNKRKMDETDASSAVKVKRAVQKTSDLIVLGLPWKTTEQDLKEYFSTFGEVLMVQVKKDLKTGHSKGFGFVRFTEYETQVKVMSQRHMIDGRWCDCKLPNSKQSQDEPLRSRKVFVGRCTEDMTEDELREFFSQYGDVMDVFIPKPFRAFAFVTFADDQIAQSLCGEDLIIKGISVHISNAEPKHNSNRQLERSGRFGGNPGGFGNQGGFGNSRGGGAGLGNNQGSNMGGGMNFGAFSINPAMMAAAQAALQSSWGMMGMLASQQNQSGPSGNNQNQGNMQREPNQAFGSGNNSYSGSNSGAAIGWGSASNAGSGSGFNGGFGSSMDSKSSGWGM
measurement.protocol: RNA Bind-n-Seq with designed 260-mer pool; 25 mM Tris-HCl, 150 mM KCl, 3 mM MgCl2, BSA (printed 500 mg/mL), 20 units/mL SUPERase IN; pH not stated; 500 nM RNA pool, 1 h, 4 C; TDP-43 5, 50, 500 nM; high values mean tight binding
assay.setup: protein: recombinant; tags: SBP (GST cleaved off with PreScission; pGEX-GST-SBP)
In all, about 9,900 sequences were measured (“r (bound/input frequency ratio)”: median about 0.7, highest 2% from about 6.5 on). Only a selection was taken, and the highest values are over-represented in it overall.

Illustrative cases are given below, each with its answer.
[
  {
    "binder": "ENSMUSG00000004113.295|Cacna1b (ssRNA) RNA: GGGAGUUCUACAGUCCGACGAUCGCUUCGAUAUCCGCAUGCUAGGGAGGCCACGAGAGAAAGGUUGCACACAGACAGGCAGGCACUCCUUGGUGUGGUCUCUCUGUUUUGAAACUUCUGAUGACUUCUUGGUGGCUUGUUGUCUUCUACCCCAUGUUUCUCACAGGAUCUGUGUGUGUGUGUGUGUGUGUGUGUGUGUGUGUGUGUGUGUGUGUUAGCAUGUGUGUAUUAGCGUGUGUGAGUGUGUGAGCAUGCACGAGUCAUAGGAGAUGCAGGUGUAUGUGUGUGGUGUGCAUAUGUGUAUCUCUUGCGGUCGCACUAGUGUGGAAUUCUCGGGUGUCAAGG",
    "binding signal": "5.7 R (bound/input frequency ratio)"
  },
  {
    "binder": "ENSMUSG00000004113.294|Cacna1b (ssRNA) RNA: GGGAGUUCUACAGUCCGACGAUCGCUUCGAUAUCCGCAUGCUAAUAGCUGGGAGGCCACGAGAGAAAGGUUGCACACAGACAGGCAGGCACUCCUUGGUGUGGUCUCUCUGUUUUGAAACUUCUGAUGACUUCUUGGUGGCUUGUUGUCUUCUACCCCAUGUUUCUCACAGGAUCUGUGUGUGUGUGUGUGUGUGUGUGUGUGUGUGUGUGUGUGUGUGUUAGCAUGUGUGUAUUAGCGUGUGUGAGUGUGUGAGCAUGCACGAGUCAUAGGAGAUGCAGGUGUAUGUGUGUGGUGUGCAUAUCUCUUGCGGUCGCACUAGUGUGGAAUUCUCGGGUGUCAAGG",
    "binding signal": "6.88 R (bound/input frequency ratio)"
  },
  {
    "binder": "ENSMUSG00000004113.302|Cacna1b (ssRNA) RNA: GGGAGUUCUACAGUCCGACGAUCGCUUCGAUAUCCGCAUGCUAUCCUUGGUGUGGUCUCUCUGUUUUGAAACUUCUGAUGACUUCUUGGUGGCUUGUUGUCUUCUACCCCAUGUUUCUCACAGGAUCUGUGUGUGUGUGUGUGUGUGUGUGUGUGUGUGUGUGUGUGUGUGUUAGCAUGUGUGUAUUAGCGUGUGUGAGUGUGUGAGCAUGCACGAGUCAUAGGAGAUGCAGGUGUAUGUGUGUGGUGUGCAUAUGUGUAUGUGUGUGUGUGUGUGUGUGUGUGUAGGUGUGUUCAGCAAGUGCUCUUGCGGUCGCACUAGUGUGGAAUUCUCGGGUGUCAAGG",
    "binding signal": "8.59 R (bound/input frequency ratio)"
  }
]

Kindly consider the entry below.
Asked: Could you share which binding signal value was measured for ENSMUSG00000004113.293|Cacna1b (ssRNA) RNA: GGGAGUUCUACAGUCCGACGAUCGCUUCGAUAUCCGCAUGCUAGCACAGAUAGCUGGGAGGCCACGAGAGAAAGGUUGCACACAGACAGGCAGGCACUCCUUGGUGUGGUCUCUCUGUUUUGAAACUUCUGAUGACUUCUUGGUGGCUUGUUGUCUUCUACCCCAUGUUUCUCACAGGAUCUGUGUGUGUGUGUGUGUGUGUGUGUGUGUGUGUGUGUGUGUGUGUUAGCAUGUGUGUAUUAGCGUGUGUGAGUGUGUGAGCAUGCACGAGUCAUAGGAGAUGCAGGUGUAUGUGUGUGGUGUCUCUUGCGGUCGCACUAGUGUGGAAUUCUCGGGUGUCAAGG ?
Given back: 5.22 R (bound/input frequency ratio)
